Values from ChEMBL document CHEMBL1123886

ILS max overview
system: P388; assay: Percent increase in life span of the drug-treated tumor-bearing animals vs nontreated tumor-bearing controls with P388 leukemia cells.; format: functional, Mus musculus
observation type: ILS max

[[record]]
smiles_input = "CNc1cc(NC(=O)OC)ccc1Nc1c2ccc(Cl)cc2nc2c(C)cccc12"
observation_type = "ILS max"
obs_value = 173

[[record]]
smiles_input = "COC(=O)Nc1ccc(Nc2c3ccccc3nc3ccccc23)c(N(C)C)c1"
observation_type = "ILS max"
obs_value = 20

[[record]]
smiles_input = "COP(=O)(Nc1ccc(Nc2c3ccccc3nc3ccccc23)c(N(C)C)c1)OC"
observation_type = "ILS max"
obs_value = 97

[[record]]
smiles_input = "CNc1cc(NC(=O)OC)ccc1Nc1c2ccc(F)cc2nc2c(OC)cccc12"
observation_type = "ILS max"
obs_value = 125

[[record]]
smiles_input = "CNc1cc(NC(=O)OC)ccc1Nc1c2ccccc2nc2cc(C)ccc12"
observation_type = "ILS max"
obs_value = 105

[[record]]
smiles_input = "CNC(=O)c1cccc2c(Nc3ccc(NC(=O)OC)cc3NC)c3cccc(OC)c3nc12"
observation_type = "ILS max"
obs_value = 92

[[record]]
smiles_input = "CNc1cc(NC(=O)OC)ccc1Nc1c2ccccc2nc2c(OC)cccc12"
observation_type = "ILS max"
obs_value = 98

[[record]]
smiles_input = "CNc1cc(NC(=O)OC)ccc1Nc1c2ccccc2nc2cc([N+](=O)[O-])ccc12"
observation_type = "ILS max"
obs_value = 48

[[record]]
smiles_input = "CNc1cc(NC(C)=O)ccc1Nc1c2ccccc2nc2ccccc12"
observation_type = "ILS max"
obs_value = 96

[[record]]
smiles_input = "CNc1cc(NC(=O)OC)ccc1Nc1c2ccccc2nc2cc(Cl)ccc12"
observation_type = "ILS max"
obs_value = 104


====

test system: P388; experiment: Percent increase in life span of the drug-treated tumor-bearing animals vs nontreated tumor-bearing controls with P388 leukemia cells.; assay type: functional, Mus musculus
observation type: ILS max

[[record]]
smiles_input = "COc1cc(NP(=O)(OC)OC)ccc1Nc1c2ccccc2nc2ccccc12"
obs_value = 67

[[record]]
smiles_input = "CNC(=O)c1cccc2c(Nc3ccc(NC(=O)OC)cc3NC)c3ccccc3nc12"
obs_value = 60

[[record]]
smiles_input = "CNc1cc(NC(=O)OC)ccc1Nc1c2ccccc2nc2cc(F)ccc12"
obs_value = 110

[[record]]
smiles_input = "CNc1cc(NC(=O)OC)ccc1Nc1c2ccc(F)cc2nc2c(C)cccc12"
obs_value = 43

[[record]]
smiles_input = "CNc1cc(NC(=O)OC)ccc1Nc1c2ccccc2nc2c(F)cccc12"
obs_value = 103

[[record]]
smiles_input = "CNc1cc(NC(=O)OC)ccc1Nc1c2ccccc2nc2c(C)cccc12"
obs_value = 114

[[record]]
smiles_input = "CNc1cc(NC(=O)OC)ccc1Nc1c2ccccc2nc2ccc(C)cc12"
obs_value = 69

[[record]]
smiles_input = "CNc1cc(NC(=O)OC)ccc1Nc1c2ccc(Br)cc2nc2c(C)cccc12"
obs_value = 286

[[record]]
smiles_input = "CNc1cc(NC(=O)OC)ccc1Nc1c2ccc(Br)cc2nc2c(OC)cccc12"
obs_value = 98

[[record]]
smiles_input = "CNc1cc(NC(=O)OC)ccc1Nc1c2ccccc2nc2cc(I)ccc12"
obs_value = 92

[[record]]
smiles_input = "CNC(=O)c1cccc2c(Nc3ccc(NC(=O)OC)cc3NC)c3cccc(C)c3nc12"
obs_value = 99

[[record]]
smiles_input = "CNc1cc(NC(=O)OC)ccc1Nc1c2ccc(C)cc2nc2c(OC)cccc12"
obs_value = 128

[[record]]
smiles_input = "CNc1cc(NC(=O)OC)ccc1Nc1c2ccccc2nc2c(C(N)=O)cccc12"
obs_value = 32

[[record]]
smiles_input = "CNc1cc(NC(=O)OC)ccc1Nc1c2ccc(C)cc2nc2c(C)cccc12"
obs_value = 181

[[record]]
smiles_input = "CNc1cc(NC(=O)OC)ccc1Nc1c2ccccc2nc2cc(OC)ccc12"
obs_value = 108

[[record]]
smiles_input = "COc1cc(NC(C)=O)ccc1Nc1c2ccccc2nc2ccccc12"
obs_value = 50

[[record]]
smiles_input = "COC(=O)Nc1ccc(Nc2c3ccccc3nc3ccccc23)c(OC)c1"
obs_value = 86

[[record]]
smiles_input = "CNc1cc(NC(=O)OC)ccc1Nc1c2ccc(Cl)cc2nc2c(OC)cccc12"
obs_value = 177

[[record]]
smiles_input = "CNc1cc(NC(=O)OC)ccc1Nc1c2ccccc2nc2cc(Br)ccc12"
obs_value = 101

[[record]]
smiles_input = "CNc1cc(NC(=O)OC)ccc1Nc1c2ccccc2nc2c(Cl)cccc12"
obs_value = 30

[[record]]
smiles_input = "CNc1cc(NC(=O)OC)ccc1Nc1c2ccccc2nc2ccccc12"
obs_value = 132


====

# reported Log K; entries follow
system: poly[d(A-T)]; assay: Binding constant for poly[d(A-T)] by ethidium bromide displacement
observation type: Log K

[[record]]
smiles_input = "CNc1cc(NC(=O)OC)ccc1Nc1c2ccc(Br)cc2nc2c(C)cccc12"
obs_value = 7.52

[[record]]
smiles_input = "CNC(=O)c1cccc2c(Nc3ccc(NC(=O)OC)cc3NC)c3ccccc3nc12"
obs_value = 6.48

[[record]]
smiles_input = "CNc1cc(NC(C)=O)ccc1Nc1c2ccccc2nc2ccccc12"
obs_value = 6.79

[[record]]
smiles_input = "CNc1cc(NC(=O)OC)ccc1Nc1c2ccccc2nc2c(OC)cccc12"
obs_value = 6.57

[[record]]
smiles_input = "CNc1cc(NC(=O)OC)ccc1Nc1c2ccccc2nc2cc(C)ccc12"
obs_value = 6.72

[[record]]
smiles_input = "CNc1cc(NC(=O)OC)ccc1Nc1c2ccccc2nc2cc(I)ccc12"
obs_value = 6.12

[[record]]
smiles_input = "COC(=O)Nc1ccc(Nc2c3ccccc3nc3ccccc23)c(OC)c1"
obs_value = 6.24

[[record]]
smiles_input = "CNc1cc(NC(=O)OC)ccc1Nc1c2ccccc2nc2cc([N+](=O)[O-])ccc12"
obs_value = 6.58

[[record]]
smiles_input = "COc1cc(NP(=O)(OC)OC)ccc1Nc1c2ccccc2nc2ccccc12"
obs_value = 6.18

[[record]]
smiles_input = "CNC(=O)c1cccc2c(Nc3ccc(NC(=O)OC)cc3NC)c3cccc(C)c3nc12"
obs_value = 7.12


====

test system: poly[d(A-T)]; assay: Binding constant for poly[d(A-T)] by ethidium bromide displacement
// No strictly below 6 in Log K; Yes otherwise

[[record]]
smiles_input = "CNc1cc(NC(=O)OC)ccc1Nc1c2ccc(Br)cc2nc2c(OC)cccc12"
classification = "Yes"

[[record]]
smiles_input = "CNc1cc(NC(=O)OC)ccc1Nc1c2ccc(F)cc2nc2c(OC)cccc12"
classification = "Yes"

[[record]]
smiles_input = "CNc1cc(NC(=O)OC)ccc1Nc1c2ccc(F)cc2nc2c(C)cccc12"
classification = "Yes"

[[record]]
smiles_input = "CC(=O)Nc1ccc(Nc2c3ccccc3nc3ccccc23)c(N(C)C)c1"
classification = "No"

[[record]]
smiles_input = "CNc1cc(NC(=O)OC)ccc1Nc1c2ccccc2nc2ccccc12"
classification = "Yes"

[[record]]
smiles_input = "CNC(=O)c1cccc2c(Nc3ccc(NC(=O)OC)cc3NC)c3cccc(OC)c3nc12"
classification = "Yes"

[[record]]
smiles_input = "CNc1cc(NC(=O)OC)ccc1Nc1c2ccc(C)cc2nc2c(OC)cccc12"
classification = "Yes"

[[record]]
smiles_input = "CNc1cc(NC(=O)OC)ccc1Nc1c2ccccc2nc2cc(OC)ccc12"
classification = "Yes"

[[record]]
smiles_input = "CNc1cc(NC(=O)OC)ccc1Nc1c2ccccc2nc2cc(F)ccc12"
classification = "No"

[[record]]
smiles_input = "CNc1cc(NC(=O)OC)ccc1Nc1c2ccccc2nc2cc(Br)ccc12"
classification = "Yes"

[[record]]
smiles_input = "CNc1cc(NC(=O)OC)ccc1Nc1c2ccccc2nc2c(C)cccc12"
classification = "Yes"

[[record]]
smiles_input = "CNc1cc(NC(=O)OC)ccc1Nc1c2ccccc2nc2ccc(C)cc12"
classification = "No"

[[record]]
smiles_input = "CNc1cc(NC(=O)OC)ccc1Nc1c2ccc(Cl)cc2nc2c(C)cccc12"
classification = "Yes"

[[record]]
smiles_input = "COP(=O)(Nc1ccc(Nc2c3ccccc3nc3ccccc23)c(N(C)C)c1)OC"
classification = "Yes"

[[record]]
smiles_input = "CNc1cc(NC(=O)OC)ccc1Nc1c2ccc(C)cc2nc2c(C)cccc12"
classification = "Yes"

[[record]]
smiles_input = "CNc1cc(NC(=O)OC)ccc1Nc1c2ccccc2nc2c(Cl)cccc12"
classification = "Yes"

[[record]]
smiles_input = "CNc1cc(NC(=O)OC)ccc1Nc1c2ccc(Cl)cc2nc2c(OC)cccc12"
classification = "Yes"


====

Parameter: ILS max. Scope: all listed entries.
system: P388/ADR; test: Percent increase in life span, of the drug-treated tumor-bearing animals vs nontreated tumor-bearing controls with P388/ADR cells.; assay type: functional, Mus musculus
observation type: ILS max

[[record]]
smiles_input = "CNc1cc(NC(=O)OC)ccc1Nc1c2ccccc2nc2cc(Br)ccc12"
observation_type = "ILS max"
obs_value = 29

[[record]]
smiles_input = "CNc1cc(NC(=O)OC)ccc1Nc1c2ccc(Br)cc2nc2c(C)cccc12"
observation_type = "ILS max"
obs_value = 42

[[record]]
smiles_input = "CNc1cc(NC(=O)OC)ccc1Nc1c2ccc(Cl)cc2nc2c(C)cccc12"
observation_type = "ILS max"
obs_value = 79

[[record]]
smiles_input = "CNc1cc(NC(=O)OC)ccc1Nc1c2ccccc2nc2c(F)cccc12"
observation_type = "ILS max"
obs_value = 43

[[record]]
smiles_input = "CNc1cc(NC(=O)OC)ccc1Nc1c2ccccc2nc2c(C)cccc12"
observation_type = "ILS max"
obs_value = 43

[[record]]
smiles_input = "CNc1cc(NC(=O)OC)ccc1Nc1c2ccc(F)cc2nc2c(C)cccc12"
observation_type = "ILS max"
obs_value = 47

[[record]]
smiles_input = "CNc1cc(NC(=O)OC)ccc1Nc1c2ccc(Br)cc2nc2c(OC)cccc12"
observation_type = "ILS max"
obs_value = 20

[[record]]
smiles_input = "COC(=O)Nc1ccc(Nc2c3ccccc3nc3ccccc23)c(OC)c1"
observation_type = "ILS max"
obs_value = 33

[[record]]
smiles_input = "CNC(=O)c1cccc2c(Nc3ccc(NC(=O)OC)cc3NC)c3cccc(OC)c3nc12"
observation_type = "ILS max"
obs_value = 31

[[record]]
smiles_input = "CNc1cc(NC(=O)OC)ccc1Nc1c2ccccc2nc2cc(F)ccc12"
observation_type = "ILS max"
obs_value = 21

